Ratio Ki values by entry
species: Homo sapiens; assay: Selectivity index, ratio of Ki for recombinant human furin expressed in drosophila S2 cells to Ki for recombinant human PACE4 expressed in drosophila S2 cells; format: cell-based
Peptide text beside a SMILES is read from it. * marks the point of attachment. NH(4-amidinobenzyl) = N=C(N)c1ccc(CN*)cc1
Lab note: write the figure by itself, no unit.

For orientation, consider the following solved cases.
Molecule | Measured property | Number
CC(=O)N[C@@H](CC(=O)O)C(=O)N[C@@H](CC(C)C)C(=O)N[C@@H](CC(C)C)C(=O)N[C@@H](CC(C)C)C(=O)N[C@@H](CCCNC(=N)N)C(=O)N[C@H](C(=O)N[C@@H](CCCCN)C(=O)NCc1ccc(C(=N)N)cc1)C(C)C (Ac-DLLLRVK-{NH(4-amidinobenzyl)}) | Ratio Ki | 0.7
CC(=O)N[C@@H](CC(C)C)C(=O)N[C@@H](CC(C)C)C(=O)N[C@@H](CC(N)=O)C(=O)N[C@@H](CC(C)C)C(=O)N[C@@H](CCCNC(=N)N)C(=O)N[C@H](C(=O)N[C@@H](CCCCN)C(=O)NCc1ccc(C(=N)N)cc1)C(C)C (Ac-LLNLRVK-{NH(4-amidinobenzyl)}) | Ratio Ki | 0.7
CC(=O)N[C@@H](C)C(=O)N[C@@H](CC(C)C)C(=O)N[C@@H](CC(C)C)C(=O)N[C@@H](CC(C)C)C(=O)N[C@@H](CCCNC(=N)N)C(=O)N[C@H](C(=O)N[C@@H](CCCCN)C(=O)NCc1ccc(C(=N)N)cc1)C(C)C (Ac-ALLLRVK-{NH(4-amidinobenzyl)}) | Ratio Ki | 2
CC(=O)N[C@@H](CC(C)C)C(=O)N[C@@H](CCCNC(=N)N)C(=O)N[C@@H](CC(C)C)C(=O)N[C@@H](CC(C)C)C(=O)N[C@@H](CCCNC(=N)N)C(=O)N[C@H](C(=O)N[C@@H](CCCCN)C(=O)NCc1ccc(C(=N)N)cc1)C(C)C (Ac-LRLLRVK-{NH(4-amidinobenzyl)}) | Ratio Ki | 1.3
CC(=O)N[C@@H](CC(C)C)C(=O)N[C@@H](CC(C)C)C(=O)N[C@@H](CC(C)C)C(=O)N[C@@H](CCC(N)=O)C(=O)N[C@@H](CCCNC(=N)N)C(=O)N[C@H](C(=O)N[C@@H](CCCCN)C(=O)NCc1ccc(C(=N)N)cc1)C(C)C (Ac-LLLQRVK-{NH(4-amidinobenzyl)}) | Ratio Ki | 0.8
CC(=O)N[C@@H](CC(C)C)C(=O)N[C@@H](CCC(N)=O)C(=O)N[C@@H](CC(C)C)C(=O)N[C@@H](CC(C)C)C(=O)N[C@@H](CCCNC(=N)N)C(=O)N[C@H](C(=O)N[C@@H](CCCCN)C(=O)NCc1ccc(C(=N)N)cc1)C(C)C (Ac-LQLLRVK-{NH(4-amidinobenzyl)}) | Ratio Ki | 0.8

Problem: For the molecule shown here, CC(=O)N[C@@H](CC(C)C)C(=O)N[C@@H](CC(C)C)C(=O)N[C@@H](CCC(=O)O)C(=O)N[C@@H](CC(C)C)C(=O)N[C@@H](CCCNC(=N)N)C(=O)N[C@H](C(=O)N[C@@H](CCCCN)C(=O)NCc1ccc(C(=N)N)cc1)C(C)C (Ac-LLELRVK-{NH(4-amidinobenzyl)}) , give the reported Ratio Ki.
Result: 0.8
